# PROCEDURE DETAILS: reduced mouse 2C T cell binding to pMHC/ICAM-1 vesicles – MLPCN validation set, flow cytometry, LFA-1/ICAM-1 modulator project, pilot screen (AID 2523)
# CONDITION DESCRIPTION: 2C mouse CD8+ T cells, at 7 µM, stronger effect = lower value; measured here: CD8+/vesicle+ event percentage
EXPERIMENTAL READOUT: double positive events
Answer with the value and then the unit.

// worked examples, double positive events included
CN=C(NC#N)NCCSCc1nc[nH]c1C :: 62.1%
O=C(O)/C=C/c1cccc(OCc2ccccc2)c1 :: 58.1%
CCOc1ccc2nc(NC(=O)NC3CCCCC3)sc2c1 :: 64.2%
O=C(O)c1cnccn1 :: 65%
O=C(CC1(O)C(=O)Nc2ccccc21)c1ccccc1O (stereo not given) :: 61.5%

Given the compound COC(=O)c1[nH]c2ccc(C)cc2c1NC(=O)CN1CCc2cc(OC)c(OC)cc2C1 , what is its reported double positive events? 63.8%

Given the compound CC(=O)[C@H]1CC[C@H]2[C@@H]3CCC4=CC(=O)CC[C@]4(C)[C@H]3CC[C@]12C , what is its reported double positive events? 64%

Given the compound Cc1nc(NCc2ccco2)c(C#N)c2c1COC(C)(C)C2 , what is its reported double positive events? 57.7%
